target: HIV Env of isolate 62357_14_D3_4589 (clade B) (HIV); experiment: cell-based or functional assay
RECORDED ENDPOINT: IC50 (µg/ml) with constrains (µg/mL)

BINDER: ePGDM5 (antibody, V domains shown) VH: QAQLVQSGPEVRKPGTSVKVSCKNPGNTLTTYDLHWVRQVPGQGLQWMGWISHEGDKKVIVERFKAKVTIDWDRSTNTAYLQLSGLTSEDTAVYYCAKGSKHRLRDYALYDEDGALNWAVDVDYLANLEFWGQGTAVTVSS VL: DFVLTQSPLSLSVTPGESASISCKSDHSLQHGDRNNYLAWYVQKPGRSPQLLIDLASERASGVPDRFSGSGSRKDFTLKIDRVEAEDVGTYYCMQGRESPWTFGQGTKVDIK
UNITS OF MEASURE: µg/mL
QUALIFIER: =
QUANTITATIVE READOUT: 9.98
--
BINDER: ePGDM13 (antibody, V domains shown) VH: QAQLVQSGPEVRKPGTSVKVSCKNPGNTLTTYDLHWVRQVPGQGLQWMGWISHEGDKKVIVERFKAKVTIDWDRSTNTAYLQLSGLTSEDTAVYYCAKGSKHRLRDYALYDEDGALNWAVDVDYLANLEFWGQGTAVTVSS VL: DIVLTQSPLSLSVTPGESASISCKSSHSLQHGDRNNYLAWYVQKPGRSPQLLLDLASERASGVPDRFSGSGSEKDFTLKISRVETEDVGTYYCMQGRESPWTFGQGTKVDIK
UNITS OF MEASURE: µg/mL
QUALIFIER: =
QUANTITATIVE READOUT: 17.4
--
BINDER: PGDM1400 (antibody, V domains shown) VH: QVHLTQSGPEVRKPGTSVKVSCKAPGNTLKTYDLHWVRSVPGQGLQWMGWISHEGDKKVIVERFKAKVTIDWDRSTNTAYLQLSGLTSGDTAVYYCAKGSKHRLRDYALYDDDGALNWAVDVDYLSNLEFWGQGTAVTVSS VL: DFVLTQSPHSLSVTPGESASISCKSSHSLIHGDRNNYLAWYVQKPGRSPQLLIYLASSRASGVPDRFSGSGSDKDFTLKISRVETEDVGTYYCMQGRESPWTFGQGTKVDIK
UNITS OF MEASURE: µg/mL
QUALIFIER: >
QUANTITATIVE READOUT: 100
